Values from patent US20230348616A1

target: T1, HLA-A2 / homologous peptide P2RY8 complex on T2 cells (human); test: flow cytometry on peptide-pulsed T2 cells, scFv 100 nM;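 also: scFv binding read as gMFI and normalized to the level of HLA/peptide complex displayed on T2 cells, with homologous 9-mer peptides used to probe specificity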
T1 construct: whole, on cells; also called T2 cells supplemented with homologous peptide P2RY8
Decide using standardized gMFI: a value greater than or equal to 0.7 is 1, a smaller one is 0.

binder	class-assignment
NYA-2045 (scFv, also called NYA-2045 tag adduct) scFv: GEVQLVESGGGLVQPGGSLRLSCAASGFSIRSYDIHWVRLAPGKGLEWVATISYDGSQKYYADSVKGRFTISRDESKNTLYLQMNSLRAEDTAVYHCARGSSGHYEAFDIWGQGTLVTVSSGGGGSGGGGSGGGGSQSVLTQPPSASGTPGQRVTISCSGSSSNIGNWYVSWYQQLPGTAPKLLIYDNNKRPSGVPDRFSGSKSGTSASLAISGLQSEDEADYYCGTWDSSLSAPWVFGGGTKLTVLGAAAGAGGDYKDDDDKGAAAHHHHHH	0
NYC-0004 (scFv, not shown: small tags and cut ends, also called T1 scFv; NYC-0004 tag adduct) scFv: EVQLLESGGGLVQPGGSLRLSCAASGFTFSTYQMSWVRQAPGKGLEWVSGIVSSGGSTAYADSVKGRFTISRDNSKNTLYLQMNSLRAEDTAVYYCAGELLPYYGMDVWGQGTTVTVSSGGGGSGGGGSGGGGSQSELTQPRSVSGSPGQSVTISCTGTERDVGGYNYVSWYQQHPGKAPKLIIHDVIERSSGVPDRFSGSKSGNTASLTISGLQAEDEADYYCWSFAGGYYVFGTGTDVTVL	1
NYA-1154 (scFv) scFv: GEVQLVESGGGVVQPGRSLTPSCSASGFSIRSYDMHWVRQAPGKGLEWVATISYDGSQKYFADSVKGRFTIFRDESENMVYLQMSGLRVEDTAVYHCARGSSNHYEAFDIWGQGTMVTVSSGGGGSGGGGSGGGGSQSVLTQPPSVSAAPGQKVTISCSGSSSNIGNNYVSWYQRLPGTAPKLLIYDNNKRPSGIPDRFSGSKSGTSATLGITGLQTGDEADYYCGAWDSSLSAPWVFGGGTKVTVLGAAAGAGGDYKDDDDKGAAAHHHHHH	0
NYC-0003 (scFv, not shown: small tags and cut ends, also called 3M4E5 scFv; NYC-0003 tag adduct) scFv: EVQLLESGGGLVQPGGSLRLSCAASGFTFSTYQMSWVRQAPGKGLEWVSGIVSSGGSTAYADSVKGRFTISRDNSKNTLYLQMNSLRAEDTAVYYCAGELLPYYGMDVWGQGTTVTVSSGGGGSGGGGSGGGGSQSELTQPRSVSGSPGQSVTISCTGTSRDVGGYNYVSWYQQHPGKAPKLIIHDVIERSSGVPDRFSGSKSGNTASLTISGLQAEDEADYYCWSFAGSYYVFGTGTDVTVL	1
NYA-2060 (scFv, also called NYA-2060 tag adduct) scFv: GEVQLVESGGGLVQPGGSLRLSCAASGFSIRSYDIHWVRQAPGKGLEWVATISYDGSQKYYADSVKGRFTISRDESKNTLYLQMNSLRAEDTAVYHCARGSSGHYEAFDIWGQGTLVTVSSGGGGSGGGGSGGGGSQSVLTQPPSVSAAPGQKVTISCSGSSSNIGNWYVSWYQQLPGTAPKLLIYDNNKRPSGIPDRFSGSKSGTSATLGITGLQTGDEADYYCGTWDSSLSAPWVFGGGTKVTVLGAAAGAGGDYKDDDDKGAAAHHHHHH	0
